ASSAYED_TARGET: T1, human BCMA (soluble analyte of Examples 8 and 14) (human, UniProt Q02223 1-54, limits assumed)
T1 sequence (looked up): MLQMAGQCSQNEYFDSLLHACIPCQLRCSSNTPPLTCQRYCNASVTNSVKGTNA
TEST_PROTOCOL: BLI competition, APRIL/TNFSF13 (competitor) on AR2G sensors, premix 710 nM antibody + 71 nM human BCMA; without antibody 0.6588 nm
The binders listed here are annotated with their Response (premix of antibody and BCMA on APRIL sensors).
Provide only the numeric value, understood in nm.

Some binders with known Response (premix of antibody and BCMA on APRIL sensors) results, for comparison:
>>> experimental_result("Antibody 01-030 (antibody, human IgG1, kappa, L234A L235A, V domains shown, Full-length human IgG1 with L234A/L235A (pEE-HCLALA IgG1 vector) and CK light chain constant domain (pEE-CK), made in CHO-T cells; also called candidate 030) VH: EVQLVQSGGGLVQPGGSLRVSCAASGFSFSSGLMSWVRQAPGKGFEWVSGYNGGSDRAGFADSVEGRFTISRDNAKNTLYLQMNSLKPEDTAVYYCARYIANSGTYYWDYWGQGTLVTVSS VL: QSALTQPPSASGTPGQRVTISCSGSISNIGSNTVNWYQHLPGTAPKLLIYNHNQRPSGVPDRFSGSTSGTSASLAISGLQSEDEADYFCATWDDSLSAWLFGGGTKLTVLR")
-0.0066
>>> experimental_result("Antibody 01-027 (antibody, human IgG1, kappa, L234A L235A, V domains shown, Full-length human IgG1 with L234A/L235A (pEE-HCLALA IgG1 vector) and CK light chain constant domain (pEE-CK), made in CHO-T cells; also called candidate 027) VH: EVQLVQSGGGLVQSGGSLRVSCAASGFTFSSGLMSWVRQAPGKGFEWVSGYNGGSDRAGYTDSVKGRFTISRDNAKNTLYLQMNSLKPEDTAVYYCARYIANSGTYYWDYWGQGTTVTVSS VL: QAVLTQPPSASGTPGQRVSISCSGGISNIGSNIVNWYQHLPGTAPKLLIYSGNQRPSGVPDRFSGSKSGTSASLAISGLQSEDEADYYCSSWDSDLRNWVFGGGTKLTVLR")
0.017

What value of measured Response (premix of antibody and BCMA on APRIL sensors) is listed for Antibody 01-025 (antibody, human IgG1, kappa, L234A L235A, V domains shown, Full-length human IgG1 with L234A/L235A (pEE-HCLALA IgG1 vector) and CK light chain constant domain (pEE-CK), made in CHO-T cells; also called candidate 025) VH: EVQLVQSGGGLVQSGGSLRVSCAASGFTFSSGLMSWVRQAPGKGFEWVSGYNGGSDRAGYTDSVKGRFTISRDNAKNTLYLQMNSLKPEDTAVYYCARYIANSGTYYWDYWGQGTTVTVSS VL: QPVLTQPPSVSEAPRQRVTISCSGSSSNIGNNAVNWYQQLPGKAPKLLIYSTNQRPSGVPDRFSGSKSGTSASLAISGLQSEDEADYYCAAWDDRVSAWLFGGGTKLTVLR ? 0.0259

Hey, just so you know, these numbers are from patent US20250304707A1.
